# Tested on: Twospotted spider mites (Tetranychus urticae Koch)
# Test: Mite/insect screen, sprayed squash cotyledons (SM)
# Format: in vivo
# Experimental parameters: Tetranychus urticae, percent mortality; spray rate 400 ppm; read-out: SM RESULTS %
Measurement name: mortality at 400 ppm (%)
// units = %; emit number, no label

Consider the following illustrative entries.
[
  {
    "Compound": "Cc1cc(C)c(CCOc2ncnc3ccccc23)c(C)c1",
    "mortality at 400 ppm, %": 0
  },
  {
    "Compound": "Clc1cccc2c(NCCc3cccc(Oc4ccccc4)c3)ncnc12",
    "mortality at 400 ppm, %": 0
  },
  {
    "Compound": "Clc1ccc2ncnc(NCCc3ccccc3Oc3ccccc3)c2c1",
    "mortality at 400 ppm, %": 0
  },
  {
    "Compound": "CC(C)Cc1ccc(C(C)COc2ncnc3ccccc23)cc1 (stereo not drawn)",
    "mortality at 400 ppm, %": 80
  }
]

Query: mortality at 400 ppm; subject: `CC(C)(C)c1ccc(CCNc2ncnc3c(F)cccc23)cc1`
0

For the compound CC(CNc1ncnc2c(F)cccc12)c1ccc(Cl)cc1 (stereo not drawn) , what mortality at 400 ppm is on record?
100

Entry under review: Cc1ccccc1CCOc1ncnc2ccccc12 [Example 103, 4-[2-(2-methylphenyl)ethoxy]quinazoline] . Reported mortality at 400 ppm?
0

Look at this compound and give its reported mortality at 400 ppm. Clc1ccccc1OCCOc1ncnc2ccccc12 [Example 110, 4-[2-(2-chlorophenoxy)ethoxy]quinazoline]
0

Look up mortality at 400 ppm: c1ccc(Oc2ccc(CCCc3ncnc4ccccc34)cc2)cc1 [Example 164, 4-[3-(4-phenoxyphenyl)propyl]quinazoline]
20

I would be grateful if you could share the reported mortality at 400 ppm for `c1ccc(CCCc2ncnc3ccccc23)cc1` .
80

Please report the recorded mortality at 400 ppm for `c1ccc(Sc2cccc(CCOc3ncnc4ccccc34)c2)cc1` .
0

What measured mortality at 400 ppm goes with `CC(C)(C)c1ccc(CCCNc2ncnc3ccc(Cl)cc23)cc1` ?
80

----------
# System: Twospotted spider mites (Tetranychus urticae Koch)
# Test: Mite/insect screen, sprayed squash cotyledons (SM)
# Format: in vivo
# Experimental parameters: Tetranychus urticae, percent mortality; spray rate 400 ppm; read-out: SM RESULTS %
# Experimental: The compounds of Examples 1-203 were tested for miticidal and insecticidal activity in the following mite/insect screen. Each test compound was formulated by dissolving the compound in acetone/alcohol (50:50) mixture containing 23 g of "TOXIMUL R" (sulfonate/nonionic emulsifier blend) and 13 g of "TOXIMUL S" (sulfonate/nonionic emulsifier blend) per liter. […] After standard exposure periods, percent mortality and phytotoxicity were evaluated. […]
Measurement name: mortality at 400 ppm (%)
Your answer is read as %, so omit the unit and give the number.

Consider the following illustrative entries.
[
  {
    "Molecule": "Fc1cccc2c(OCCCc3ccc(Oc4ccccc4)cc3)ncnc12 [Example 119]",
    "Value unit": "%",
    "mortality at 400 ppm": 0
  },
  {
    "Molecule": "Clc1ccc(CCCc2ncnc3ccccc23)cc1 [Example 117, 4-[3-(4-chlorophenyl)propyl]quinazoline]",
    "Value unit": "%",
    "mortality at 400 ppm": 0
  },
  {
    "Molecule": "Cc1ccc2ncnc(NCCc3cccc(Oc4ccccc4)c3)c2c1 [Example 190]",
    "Value unit": "%",
    "mortality at 400 ppm": 0
  },
  {
    "Molecule": "Cc1ccc(CCOc2ncnc3ccccc23)cc1 [Example 87, 4-[2-(4-methylphenyl)ethoxy]quinazoline]",
    "Value unit": "%",
    "mortality at 400 ppm": 90
  },
  {
    "Molecule": "CC(C)c1ccc(CCOc2ncnc3c(F)cccc23)cc1 [Example 16]",
    "Value unit": "%",
    "mortality at 400 ppm": 0
  }
]

# query: mortality at 400 ppm of entry Fc1ccccc1Oc1ccc(CCOc2ncnc3ccccc23)cc1 [Example 162]
100

Name the reported mortality at 400 ppm value associated with the molecule c1ccc2cc(CCOc3ncnc4ccccc34)ccc2c1 [Example 80, 4-[2-(2-naphthyl)ethoxy]quinazoline]
100

Please report the recorded mortality at 400 ppm for c1ccc(-c2cccc(CCOc3ncnc4ccccc34)c2)cc1 [Example 173] .
0

State the recorded mortality at 400 ppm for this entry: CC(C)(C)c1ccc(CCOc2ncnc3ccc(Cl)cc23)cc1 [Example 174]
40

Any idea what mortality at 400 ppm was measured for CC(C)c1ccc(CCNc2ncnc3c(F)cccc23)cc1 [Example 96] ?
0
